biological target: Hypoxia-inducible factor 1-alpha (Homo sapiens) (UniProt Q16665); assay: activators of HIF1alpha nuclear accumulation, confirmation, imaging, fluorescence, U2OS GFP-HIF1alpha (AID 434951); details: U2OS GFP-HIF1alpha nuclear intensity, high-content imaging
Sequence (Q16665 whole entry, looked up): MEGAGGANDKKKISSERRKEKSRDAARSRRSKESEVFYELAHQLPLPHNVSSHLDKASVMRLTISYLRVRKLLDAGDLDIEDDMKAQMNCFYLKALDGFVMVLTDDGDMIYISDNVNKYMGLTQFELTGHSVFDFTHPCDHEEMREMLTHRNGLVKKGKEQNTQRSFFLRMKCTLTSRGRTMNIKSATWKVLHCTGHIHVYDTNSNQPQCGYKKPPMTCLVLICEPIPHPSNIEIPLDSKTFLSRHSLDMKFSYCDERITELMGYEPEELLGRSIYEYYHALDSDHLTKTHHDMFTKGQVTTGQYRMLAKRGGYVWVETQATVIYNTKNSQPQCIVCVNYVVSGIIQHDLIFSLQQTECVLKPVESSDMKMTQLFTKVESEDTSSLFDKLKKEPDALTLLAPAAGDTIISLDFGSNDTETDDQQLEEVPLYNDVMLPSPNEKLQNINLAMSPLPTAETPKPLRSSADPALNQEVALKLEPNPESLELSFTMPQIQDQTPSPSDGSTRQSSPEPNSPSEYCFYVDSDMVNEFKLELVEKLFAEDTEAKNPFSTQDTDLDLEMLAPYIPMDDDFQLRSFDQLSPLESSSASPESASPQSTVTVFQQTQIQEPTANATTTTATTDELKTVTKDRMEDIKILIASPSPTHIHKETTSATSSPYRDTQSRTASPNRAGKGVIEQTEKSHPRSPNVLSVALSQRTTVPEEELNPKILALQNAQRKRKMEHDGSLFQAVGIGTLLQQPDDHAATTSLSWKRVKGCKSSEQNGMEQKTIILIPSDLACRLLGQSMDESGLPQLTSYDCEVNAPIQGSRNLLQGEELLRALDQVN
Calls of active or inactive are those of the source.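 The calls were made as follows: active = a fitted half-maximal concentration EC50 for the rise in nuclear signal no higher than ten times the top dose tested; inconclusive = flat fit with activity between 30% and 70%, or unusable fit; inactive = EC50 beyond ten times the top dose.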
Please reply with one of these outcomes: active, inactive

Record excerpt, results attached:
1) Cn1nc(C(=O)NCCCN2CCCCC2)c2c1-c1ccccc1S(=O)(=O)C2 ... inactive
2) CCOCC(=O)Nc1ccc(S(=O)(=O)N2CCC(c3nc4ccccc4[nH]3)CC2)cc1 ... inactive
3) CC(OC(=O)COc1ccc(Nc2ccccc2)cc1)C(=O)N(C)c1ccccc1 (stereo not given) ... inactive
4) COc1ccc(C(=O)Nc2ccccc2C(=O)N/N=C/c2ccccn2)cc1OC ... active

# ---- query compound ----
[in] Assay outcome for CN1CCN(Cc2cc(COCc3ccccc3)c3cccnc3c2O)CC1 : what was it?
[out] active

====

molecular target: Hypoxia-inducible factor 1-alpha (Homo sapiens); experiment: activators of HIF1alpha nuclear accumulation, confirmation, imaging, fluorescence, U2OS GFP-HIF1alpha (AID 434951); settings: U2OS GFP-HIF1alpha nuclear intensity, high-content imaging
Active and inactive are the calls of the source.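 How the source made its calls: active means a fitted half-maximal concentration EC50 for the rise in nuclear signal no higher than ten times the top dose tested; inconclusive means flat fit with activity between 30% and 70%, or unusable fit; inactive means EC50 beyond ten times the top dose.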
Please reply with one of these outcomes: class 1 for active, class 0 for inactive

1. C/C(=N\NC(=O)Cc1ccc(Cl)cc1)c1ccccn1 ... class 1

# ---- query compound ----
[in] Assay outcome for Cc1cccc(C(=O)O/N=C(\N)c2ccc(Cl)cc2)c1 : what was it?
[out] class 0

====

target: Hypoxia-inducible factor 1-alpha (Homo sapiens) (UniProt Q16665); assay: activators of HIF1alpha nuclear accumulation, confirmation, imaging, fluorescence, U2OS GFP-HIF1alpha (AID 434951); conditions: U2OS GFP-HIF1alpha nuclear intensity, high-content imaging
Activity calls are given as the source filed them.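 Rule for the calls: active = a fitted half-maximal concentration EC50 for the rise in nuclear signal no higher than ten times the top dose tested; inconclusive = flat fit with activity between 30% and 70%, or unusable fit; inactive = EC50 beyond ten times the top dose.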
Please reply with one of these outcomes: active, inactive

[in] Assay outcome for CN(C)C(=O)CSc1nc2ccccc2n1Cc1ccccc1 : what was it?
[out] inactive

[in] Assay outcome for CCOC(=O)c1sc(=S)n(-c2ccccc2)c1C : what was it?
[out] inactive

====

Measured EC50 accompanies every entry in the list below.
biological target: Hypoxia-inducible factor 1-alpha (Homo sapiens) (UniProt Q16665); experiment: activators of HIF1alpha nuclear accumulation, confirmation, imaging, fluorescence, U2OS GFP-HIF1alpha (AID 434951); conditions: U2OS GFP-HIF1alpha nuclear intensity, high-content imaging
Active and inactive are the calls of the source.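 The calls were made as follows: active = a fitted half-maximal concentration EC50 for the rise in nuclear signal no higher than ten times the top dose tested; inconclusive = flat fit with activity between 30% and 70%, or unusable fit; inactive = EC50 beyond ten times the top dose.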

1) COc1ccc(CCNC(=O)COC(=O)CCC(=O)c2ccc(F)cc2)cc1OC ... > 35 µM (inactive)
2) CCOC(=O)/C(N=Nc1ccc(F)cc1)=C(/O)c1ccc([N+](=O)[O-])cc1 ... > 35 µM (inactive)

[in] // EC50 lookup, key: CCSc1cc(C)nc2c(-c3ccccc3)cnn12
[out] > 35 µM (inactive)

[in] // EC50 lookup, key: Cc1cc(C(=O)O)oc(=O)c1
[out] > 35 µM (inactive)

[in] // EC50 lookup, key: CCCCC(=O)N1CCN(c2nc3ccc(F)cc3s2)CC1
[out] > 35 µM (inactive)

[in] // EC50 lookup, key: CC(C)c1onc(C(=O)Nc2sc3c(c2C#N)CCC3)c1[N+](=O)[O-]
[out] > 35 µM (inactive)

[in] // EC50 lookup, key: O=C(N/N=C/c1c(O)ccc2ccccc12)c1ccc(Br)o1
[out] 12.3 µM

[in] // EC50 lookup, key: Cc1ccc(C2(O)CN(c3ccccc3C)C3=[N+]2CCS3)cc1 (stereo not drawn)
[out] > 35 µM (inactive)

[in] // EC50 lookup, key: CCN(CC)S(=O)(=O)c1cccc(C(=O)N/N=C(\C)c2ccc(O)cc2O)c1
[out] 2.12 µM

[in] // EC50 lookup, key: O=C(NCC1CCCO1)c1cc(-c2ccccc2)on1 (stereo not drawn)
[out] 6.78 µM

[in] // EC50 lookup, key: COc1cc2c(cc1OC)C(C)N(S(=O)(=O)c1ccc(Cl)nc1)CC2 (stereo not drawn)
[out] > 35 µM (inactive)

[in] // EC50 lookup, key: CCN1CCN(c2ncnc3ccc(Br)cc23)CC1
[out] > 35 µM (inactive)

[in] // EC50 lookup, key: Cc1nc2ccccc2c(=O)n1/N=C/c1ccc2ccccc2c1O
[out] 22.2 µM

[in] // EC50 lookup, key: CN(CC(=O)Nc1ccc(F)c(F)c1F)C(=O)/C=C/c1ccc(Cl)cc1
[out] > 35 µM (inactive)

[in] // EC50 lookup, key: Cc1nn(C)cc1S(=O)(=O)NCc1ccc2c(c1)OCO2
[out] > 35 µM (inactive)

Origin of values: PubChem BioAssay AID434951
